Just for reference, ChEMBL document CHEMBL1201861 is where these values come from.

tested on: 23132-87; test: cells; assay type: functional, cell-based; details: Homo sapiens
Description: SANGER: Inhibition of human 23132-87 cell growth in a cell viability assay.
observationType: pIC50
Quick note: pIC50 values are minus log10 of concentrations in mol/L.

Check out these entries, answers already filled in.
[
  {
    "compound": "CC[C@@]1(O)C(=O)OCc2c1cc1n(c2=O)Cc2cc3ccccc3nc2-1 [CAMPTOTHECIN]",
    "pIC50": 7.71
  },
  {
    "compound": "C[C@]12O[C@H](C[C@]1(O)CO)n1c3ccccc3c3c4c(c5c6ccccc6n2c5c31)CNC4=O [LESTAURTINIB]",
    "pIC50": 6.08
  }
]

Now look at this one.
[ask] Given the compound CC(C)=CC[C@@H](O)C1=CC(=O)c2c(O)ccc(O)c2C1=O [SHIKONIN] , what is its reported pIC50?
[reply] 5.68
